The entries below are paired with their reported Ki.
MEASUREMENT TARGET: Kallikrein-5 (Homo sapiens, UniProt Q9Y337)
Sequence (Q9Y337 whole entry): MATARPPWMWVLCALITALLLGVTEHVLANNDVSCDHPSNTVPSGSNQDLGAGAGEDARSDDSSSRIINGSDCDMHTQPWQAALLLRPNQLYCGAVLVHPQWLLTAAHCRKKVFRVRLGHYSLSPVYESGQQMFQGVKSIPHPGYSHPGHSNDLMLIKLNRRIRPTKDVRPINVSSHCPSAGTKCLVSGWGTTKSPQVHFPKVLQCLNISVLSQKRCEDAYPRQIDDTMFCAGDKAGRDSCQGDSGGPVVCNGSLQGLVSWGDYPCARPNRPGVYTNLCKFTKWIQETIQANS
Number first, unit second: that is the form wanted.

Recorded Ki, per entry:
COMPOUND STRUCTURE STRING	Ki
COc1ccc(/C=C2/SC(=O)N(CNc3cc(F)ccc3C)C2=O)cc1OC	95 µM
COc1cc(/C=C(/C#N)c2nc3ccccc3[nH]2)ccc1OCC(=O)N1CCOCC1	121 µM

What value of Ki has been recorded for this entry: "COc1ccc(NC(=O)/C(C#N)=C\c2ccc(O)c(OC)c2)cc1" 100 µM
